target: T1, Recombinant human IL-1beta (rhIL-1b) (human, UniProt P01584 117-269); experiment: Biacore, Medium Resolution; IL-1β in solution; medium-resolution Biacore
T1 construct: R&D Systems Cat. No. 201-LB/CF; also called IL-1β; human IL-1β
Measured kon values are reported for all entries that follow.
// units = M⁻¹ s⁻¹; emit number, no label

Some solved entries appear below for comparison.
BINDER: 5.5.1 (antibody, IgG4, V domains shown, lambda; also called mAb 5.5.1; Ab 5.5.1) VH: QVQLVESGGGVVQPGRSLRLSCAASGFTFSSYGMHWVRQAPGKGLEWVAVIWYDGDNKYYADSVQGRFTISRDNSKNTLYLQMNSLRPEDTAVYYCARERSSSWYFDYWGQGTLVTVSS VL: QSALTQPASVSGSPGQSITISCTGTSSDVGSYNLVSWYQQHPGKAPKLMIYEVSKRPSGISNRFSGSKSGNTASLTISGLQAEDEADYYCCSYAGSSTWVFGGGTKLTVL
OBSERVED: 3.1e+06
--
BINDER: 9.54.1 (antibody, human IgG4, V domains shown, lambda; also called 9.54.2) VH: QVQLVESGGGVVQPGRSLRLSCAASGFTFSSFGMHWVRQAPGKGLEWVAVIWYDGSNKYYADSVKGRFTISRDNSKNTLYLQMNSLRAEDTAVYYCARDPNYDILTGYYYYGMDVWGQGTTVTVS VL: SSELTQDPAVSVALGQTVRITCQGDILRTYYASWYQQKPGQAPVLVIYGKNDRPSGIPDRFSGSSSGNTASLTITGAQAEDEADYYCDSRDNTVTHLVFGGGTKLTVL
OBSERVED: 2.5e+06

Enquiry: Let me know recorded kon for 8.18.1 (antibody, human IgG4, V domains shown, lambda; also called mAb 8.18.1) VH: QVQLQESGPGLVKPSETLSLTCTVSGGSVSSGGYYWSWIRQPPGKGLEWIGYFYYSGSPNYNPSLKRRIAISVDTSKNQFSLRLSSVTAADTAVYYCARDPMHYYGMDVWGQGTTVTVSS VL: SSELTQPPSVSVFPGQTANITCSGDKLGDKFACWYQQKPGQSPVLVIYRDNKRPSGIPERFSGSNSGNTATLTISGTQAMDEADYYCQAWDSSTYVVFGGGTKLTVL , thanks.
Return: 490000

Enquiry: Let me know recorded kon for 5.36.1 (antibody, human IgG4, V domains shown, kappa) VH: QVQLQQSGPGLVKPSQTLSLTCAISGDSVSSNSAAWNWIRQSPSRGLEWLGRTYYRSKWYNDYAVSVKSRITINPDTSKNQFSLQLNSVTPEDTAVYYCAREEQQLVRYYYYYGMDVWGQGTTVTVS VL: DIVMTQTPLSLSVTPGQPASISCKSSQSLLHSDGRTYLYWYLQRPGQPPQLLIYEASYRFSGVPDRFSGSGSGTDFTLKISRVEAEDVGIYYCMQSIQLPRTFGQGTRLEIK , thanks.
Return: 1e+06

Enquiry: Let me know recorded kon for 9.19.1 (antibody, human IgG4, V domains shown, lambda; also called mAb 9.19.1) VH: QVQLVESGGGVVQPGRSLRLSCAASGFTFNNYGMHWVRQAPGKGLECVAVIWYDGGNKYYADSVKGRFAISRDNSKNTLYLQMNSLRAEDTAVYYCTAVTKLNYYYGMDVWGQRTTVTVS VL: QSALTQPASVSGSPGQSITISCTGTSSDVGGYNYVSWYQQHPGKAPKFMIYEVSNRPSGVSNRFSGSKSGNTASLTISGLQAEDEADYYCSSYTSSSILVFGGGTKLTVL , thanks.
Return: 640000

Enquiry: Let me know recorded kon for 9.2.1 (antibody, human IgG4, V domains shown, lambda) VH: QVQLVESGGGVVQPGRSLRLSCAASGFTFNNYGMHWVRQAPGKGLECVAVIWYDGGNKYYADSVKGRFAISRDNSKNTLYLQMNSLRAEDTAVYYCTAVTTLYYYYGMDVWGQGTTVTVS VL: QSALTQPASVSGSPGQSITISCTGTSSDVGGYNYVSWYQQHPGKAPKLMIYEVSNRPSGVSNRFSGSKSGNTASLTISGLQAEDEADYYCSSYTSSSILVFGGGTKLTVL , thanks.
Return: 1.2e+06

Enquiry: Let me know recorded kon for 6.33.1 (antibody, human IgG4, V domains shown, lambda; also called mAb 6.33.1) VH: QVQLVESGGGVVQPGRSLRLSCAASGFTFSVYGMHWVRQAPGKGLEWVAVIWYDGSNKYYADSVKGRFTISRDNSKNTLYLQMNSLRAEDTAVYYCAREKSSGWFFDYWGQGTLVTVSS VL: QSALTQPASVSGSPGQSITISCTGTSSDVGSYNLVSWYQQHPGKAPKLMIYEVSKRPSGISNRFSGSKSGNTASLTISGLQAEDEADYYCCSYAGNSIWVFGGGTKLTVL , thanks.
Return: 970000

Enquiry: Let me know recorded kon for 6.26.1 (antibody, human IgG4, V domains shown, lambda; also called 6.26.4) VH: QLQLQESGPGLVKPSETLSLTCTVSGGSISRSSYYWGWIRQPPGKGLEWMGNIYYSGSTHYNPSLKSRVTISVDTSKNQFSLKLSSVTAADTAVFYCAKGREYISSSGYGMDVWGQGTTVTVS VL: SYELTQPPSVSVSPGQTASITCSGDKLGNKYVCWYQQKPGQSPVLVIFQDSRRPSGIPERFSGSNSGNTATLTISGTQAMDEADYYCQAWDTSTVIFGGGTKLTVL , thanks.
Return: 1.9e+06

Enquiry: Let me know recorded kon for 9.11.1 (antibody, human IgG4, V domains shown, lambda; also called 9.11.3) VH: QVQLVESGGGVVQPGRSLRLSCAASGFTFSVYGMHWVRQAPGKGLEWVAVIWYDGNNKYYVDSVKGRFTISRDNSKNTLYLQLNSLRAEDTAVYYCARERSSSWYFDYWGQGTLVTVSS VL: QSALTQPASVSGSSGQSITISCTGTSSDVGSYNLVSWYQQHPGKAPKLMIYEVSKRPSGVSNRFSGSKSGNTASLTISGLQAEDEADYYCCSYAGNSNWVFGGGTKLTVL , thanks.
Return: 1.6e+06
